# assay: Intrinsic clearance in liver microsomes, rat
# Type: in vitro ADME
# conditionDetails: rat, liver microsomes, pH 7.4, rat liver microsomes, Method 1; read-out: Half-Life (T1/2) (min), Rat
Kindly supply the reported half-life at 1 μM values for the records listed here.

1. CCNC(=O)c1cc(OC(C)c2ccc(Cl)cc2F)c(C(=O)NC)[nH]1 (single isomer, unassigned) [Example 41]
> 60 min
2. CNC(=O)c1[nH]c(C(=O)NC2CC2)cc1O[C@@H](C)c1ccc(Cl)cc1 [Example 62]
> 60 min
3. CNC(=O)c1[nH]c(C(=O)NC2CCC(O)CC2)cc1OC(C)c1ccc(Cl)cc1 (single isomer, unassigned) [Example 29]
> 60 min
4. CNC(=O)c1[nH]c(C(=O)NC2CCC2)cc1O[C@@H](C)c1ccccc1 (stereo in doubt) [Example 101]
58 min

Give one value of half-life at 1 μM per listed compound.
1. CCNC(=O)c1cc(OC(C)c2ccccc2)c(C(=O)NC)[nH]1 (racemic) [Example 95]
2. CNC(=O)c1[nH]c(C(=O)NC2CCC2)cc1OC(C)c1ccc(Cl)cn1 (single isomer, unassigned) [Example 33]
3. C#Cc1ccc(C(C)Oc2cc(C(=O)NCC)[nH]c2C(=O)NC)cc1 (single isomer, unassigned) [Example 70]

> 60 min
> 60 min
60 min

* * *

# assay: Pharmacokinetics and plasma concentration of Example 101 in Lewis rats after oral administration (CIA study)
# Format: in vivo, Lewis rat
# conditionDetails: Lewis, rat, plasma, oral, 10 mg/kg, plasma, oral, day 20, 10 mg/kg, 14 h; read-out: Mean Concentration
observedProperty: concentration at 14 h
Form field: result (number plus unit)

Look up concentration at 14 h: CNC(=O)c1[nH]c(C(=O)NC2CCC2)cc1O[C@@H](C)c1ccccc1 (stereo in doubt)
138 ng/mL

* * *

# assay: Beagle dog PK study 1 of Example 101 (propylene glycol-based formulation, IV and PO), with clinical observations
# Type: in vivo
# conditionDetails: beagle, dog, plasma, iv, 1 mg/kg, dog PK study 1, IV, 2 h, mean; read-out: Average plasma concentration, Mean
observedProperty: concentration at 2 h (ng/mL)
One number for each entry, in ng/mL.

Look up concentration at 2 h: CNC(=O)c1[nH]c(C(=O)NC2CCC2)cc1O[C@@H](C)c1ccccc1 (stereo in doubt) [Example 101]
297

* * *

# assay: Beagle dog PK study 1 of Example 101 (propylene glycol-based formulation, IV and PO), with clinical observations
# Type: in vivo
# conditionDetails: beagle, dog, plasma, po, 5 mg/kg, dog PK study 1, oral, Test Animal 1
observedProperty: Tmax (h)
Numbers only, in h.

Look up Tmax: CNC(=O)c1[nH]c(C(=O)NC2CCC2)cc1O[C@@H](C)c1ccccc1 (stereo in doubt)
1

* * *

# assay: Beagle dog PK study 2 of Example 101 (HPβCD based formulation, IV), with clinical observations
# Format: in vivo
# conditionDetails: beagle, dog, plasma, iv, 1 mg/kg, dog PK study 2, IV 1 mg/kg, HPβCD, Test Animal 3
observedProperty: half-life (h)
Numbers only, in h.

Look up half-life: CNC(=O)c1[nH]c(C(=O)NC2CCC2)cc1O[C@@H](C)c1ccccc1 (stereo in doubt)
1.33

* * *

# assay: Beagle dog PK study 1 of Example 101 (propylene glycol-based formulation, IV and PO), with clinical observations
# Assay type: in vivo
# conditionDetails: beagle, dog, plasma, iv, 1 mg/kg, dog PK study 1, intravenous, Test Animal 1
observedProperty: C0 (ng/mL)
Give bare numbers, in ng/mL.

Look up C0: CNC(=O)c1[nH]c(C(=O)NC2CCC2)cc1O[C@@H](C)c1ccccc1 (stereo in doubt)
1460

* * *

# assay: Beagle dog PK study 1 of Example 101 (propylene glycol-based formulation, IV and PO), with clinical observations
# Type: in vivo
# conditionDetails: beagle, dog, plasma, po, 5 mg/kg, dog PK study 1, oral, Test Animal 2
observedProperty: AUC(0-t)
Form field: result (number plus unit)

Look up AUC(0-t): CNC(=O)c1[nH]c(C(=O)NC2CCC2)cc1O[C@@H](C)c1ccccc1 (stereo in doubt)
2930 ng·h/mL

* * *

# assay: Pharmacokinetics and plasma concentration of Example 101 in Lewis rats after oral administration (CIA study)
# Type: in vivo, Lewis rat
# conditionDetails: Lewis, rat, plasma, oral, 10 mg/kg, plasma, oral, day 20, 10 mg/kg, 1 h; read-out: Mean Concentration
observedProperty: concentration at 1 h (ng/mL)
Give bare numbers, in ng/mL.

Look up concentration at 1 h: CNC(=O)c1[nH]c(C(=O)NC2CCC2)cc1O[C@@H](C)c1ccccc1 (stereo in doubt) [Example 101]
1640

* * *

# assay: Beagle dog PK study 1 of Example 101 (propylene glycol-based formulation, IV and PO), with clinical observations
# Format: in vivo
# conditionDetails: beagle, dog, plasma, iv, 1 mg/kg, dog PK study 1, intravenous, Test Animal 3
observedProperty: half-life (min)
Answers are plain numbers, in min.

Look up half-life: CNC(=O)c1[nH]c(C(=O)NC2CCC2)cc1O[C@@H](C)c1ccccc1 (stereo in doubt)
59.5

* * *

# assay: Beagle dog PK study 1 of Example 101 (propylene glycol-based formulation, IV and PO), with clinical observations
# Assay type: in vivo
# conditionDetails: beagle, dog, plasma, po, 5 mg/kg, dog PK study 1, oral, mean
observedProperty: AUC(0-inf) (ng·h/mL)
Give bare numbers, in ng·h/mL.

Look up AUC(0-inf): CNC(=O)c1[nH]c(C(=O)NC2CCC2)cc1O[C@@H](C)c1ccccc1 (stereo in doubt)
3980

* * *

# assay: Beagle dog PK study 1 of Example 101 (propylene glycol-based formulation, IV and PO), with clinical observations
# Type: in vivo
# conditionDetails: beagle, dog, plasma, iv, 1 mg/kg, dog PK study 1, IV, 0.083 h, Test Animal 1; read-out: Plasma concentration
observedProperty: concentration at 0.083 h
Form field: result (number plus unit)

Look up concentration at 0.083 h: CNC(=O)c1[nH]c(C(=O)NC2CCC2)cc1O[C@@H](C)c1ccccc1 (stereo in doubt) [Example 101]
1.34 µg/mL

* * *

# assay: Beagle dog PK study 2 of Example 101 (HPβCD based formulation, IV), with clinical observations
# Type: in vivo
# conditionDetails: beagle, dog, plasma, iv, 1 mg/kg, dog PK study 2, IV 1 mg/kg, HPβCD, 4 h, Test Animal 3; read-out: Plasma concentration
observedProperty: concentration at 4 h (ng/mL)
One number for each entry, in ng/mL.

Look up concentration at 4 h: CNC(=O)c1[nH]c(C(=O)NC2CCC2)cc1O[C@@H](C)c1ccccc1 (stereo in doubt) [Example 101]
42.1

* * *

# target: BRD4 BD2 (Homo sapiens (Human))
# assay: NanoBRET bromodomain assay, NanoLuc-BRD4-BD2 fusion in HEK293 cells;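 note: tracer displacement BRET read in transfected cells after 2 h compound exposure at 37 °C, signal in milliBRET units corrected against no-tracer background wells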
# conditionDetails: IC50 for BRD4 BD1 divided by IC50 for BRD4 BD2; qualitative if an IC50 is at the upper limit
observedProperty: Fold selectivity

1. CNC(=O)c1[nH]c(-c2ncc(C)[nH]2)cc1O[C@@H](C)c1ccccc1 [Example 23]
XXX (Fold >200)
2. CNC(=O)c1[nH]c(C(=O)N[C@H](C)C(F)(F)F)cc1O[C@@H](C)c1ccccc1
— (Fold ≥0 and ≤2)
3. CNC(=O)c1[nH]c(C(=O)NC23CC(O)(C2)C3)cc1O[C@@H](C)c1ccccc1
XX (Fold >50 and ≤200)
4. CNC(=O)c1[nH]c(C(=O)NC2CCC2)cc1OC(C)c1ccc(Cl)cc1F (single isomer, unassigned)
XXX (Fold >200)
5. CCNC(=O)c1cc(OC(C)c2c(C)cccc2C)c(C(=O)NC)[nH]1 (single isomer, unassigned) [Example 65]
— (Fold ≥0 and ≤2)

Give one value of Fold selectivity per listed compound.
1. CNC(=O)c1[nH]c(-c2cc(C)nn2C)cc1O[C@@H](C)c1ccccc1
2. CNC(=O)c1[nH]c(C(=O)NC2CC2)cc1O[C@@H](C)c1ccc(Cl)cc1

["XX (Fold >50 and ≤200)", "XXX (Fold >200)"]

* * *

# assay: Beagle dog PK study 2 of Example 101 (HPβCD based formulation, IV), with clinical observations
# Assay type: in vivo
# conditionDetails: beagle, dog, plasma, iv, 1 mg/kg, dog PK study 2, IV 1 mg/kg, HPβCD, 24 h, Test Animal 2
observedProperty: concentration at 24 h (ng/mL)
Numbers only, in ng/mL.

Look up concentration at 24 h: CNC(=O)c1[nH]c(C(=O)NC2CCC2)cc1O[C@@H](C)c1ccccc1 (stereo in doubt)
0

* * *

# assay: Pharmacokinetics and plasma concentration of Example 101 in Lewis rats after oral administration (CIA study)
# Type: in vivo, Lewis rat
# conditionDetails: Lewis, rat, plasma, oral, 10 mg/kg, plasma, oral, day 0, 10 mg/kg, 4 h; read-out: Mean Concentration
observedProperty: concentration at 4 h (ng/mL)
Numbers only, in ng/mL.

Look up concentration at 4 h: CNC(=O)c1[nH]c(C(=O)NC2CCC2)cc1O[C@@H](C)c1ccccc1 (stereo in doubt)
997

All figures here come from patent US20250263370A1.
